tested.on: ANO1 (Homo sapiens, UniProt Q5XXA6, DEL476-501)
procedure.text: YFP fluorescence quenching assay in ANO1-overexpressing FRT cell line
pIC50: −log10 of the molar value.
# cutoff 5 applies to pIC50; >= gives y, < gives n

Quick check: does `O=C(Nc1scc(-c2ccc(Cl)cc2)c1C(=O)O)c1ccc2ccccc2c1` have pIC50 greater than or equal to 5?
y

Quick check: does `COc1ccc(C(=O)Nc2scc(-c3ccc(C(C)(C)C)cc3)c2C(=O)O)cc1` have pIC50 greater than or equal to 5?
y

Quick check: does `O=C(Nc1scc(-c2ccc(Cl)cc2)c1C(=O)O)c1cccs1` have pIC50 greater than or equal to 5?
y

Quick check: does `CC(C)(C)c1ccc(C(=O)Nc2scc(-c3ccc4ccccc4c3)c2C(=O)O)cc1` have pIC50 greater than or equal to 5?
y

Quick check: does `COc1ccc2c(c1)Cc1sc(NC(=O)c3ccc(C(C)(C)C)cc3)c(C(=O)O)c1-2` have pIC50 greater than or equal to 5?
n

Quick check: does `CC(C)(C)c1ccc(C(=O)Nc2sc3c(c2C(=O)O)-c2ccccc2C3(C)C)cc1` have pIC50 greater than or equal to 5?
y

Quick check: does `COc1ccc(-c2csc(NC(=O)c3cccs3)c2C(=O)O)cc1` have pIC50 greater than or equal to 5?
n

Origin of the recorded values: paper PMC8343189
